# Test system: HSV-1
# assay name: HSV Antiviral (ELISA) Assay in Vero cells
# Format: cell-based, herpes simplex virus type 1
# measurement context: Human alphaherpesvirus 1; HSV-1, Vero cells; read-out: IC50 (ug/ml) HSV
property: IC50

Example molecules with recorded IC50:
• O=C(O)c1cccc(NC(=S)Nc2ccc(NC(=O)c3ccco3)cc2)c1 = > 10 µg/mL
• CC(NC(=S)Nc1ccc(NC(=O)c2nccc3ccccc23)cc1)c1ccc(Br)cc1 (centres unmarked) = > 10 µg/mL
• CC(NC(=S)Nc1ccc(NC(=O)c2cccc3cccnc23)cc1)c1ccc(F)cc1 (centres unmarked) = > 10 µg/mL
• O=C(Nc1ccc(NC(=S)Nc2cccc(Cl)c2Cl)cc1)c1ccccc1F = 5 µg/mL
• CC(NC(=S)Nc1ccc(NC(=O)c2nccc3ccccc23)cc1)c1cc2ccccc2o1 (centres unmarked) = > 10 µg/mL
• COc1ccc(NC(=S)Nc2ccc(NC(=O)c3ccccc3F)cc2)cc1C(F)(F)F = 3 µg/mL

Prompt line: # get_value(readout='IC50', item= CC(NC(=S)Nc1ccc(NC(=O)c2ccccc2)cc1)c1ccc(F)cc1 (centres unmarked) )
Response line: > 10 µg/mL

Prompt line: Try this molecule next: O=C(Nc1ccc(NC(=S)Nc2cccc([N+](=O)[O-])c2)cc1)c1ccccc1F
Response line: 0.7 µg/mL
